# Test system: rabbit liver esterase
# PROCEDURE_SUMMARY: Decomposition of glutathione derivatives by rabbit liver esterase (physiological stability)
# Format: in vitro ADME
# TEST_CONTEXT: BSA/D-PBS pH 7.4, 196-244 μg/ml
MEASUREMENT_TYPE: Decomposition rate constant by rabbit liver esterase

# COMPOUND, MEAS_VALUE
measured = [
    ("CCCCCCCCCCCCCCCCCCCCCCOC(=O)[C@@H](N)CCC(=O)N[C@@H](CSCc1ccccc1)C(=O)N[C@@H](C(=O)OCC)c1ccccc1.Cl [Example 2]", "0.523 10^−4/unit/min"),
    ("CCCCCCCCCCCCCCCCOC(=O)[C@@H](N)CCC(=O)N[C@@H](CSCc1ccccc1)C(=O)N[C@@H](C(=O)OCC)c1ccccc1.Cl [Example 4]", "0.836 10^−4/unit/min"),
    ("CCCCCCCCCCCCCCCCCCOC(=O)[C@@H](N)CCC(=O)N[C@@H](CSCc1ccccc1)C(=O)N[C@@H](C(=O)OCC)c1ccccc1.Cl [Example 1]", "0.300 10^−4/unit/min"),
    ("CCCCCCCCCCCCCCOC(=O)[C@@H](N)CCC(=O)N[C@@H](CSCc1ccccc1)C(=O)N[C@@H](C(=O)OCC)c1ccccc1.Cl [Example 6]", "5.11 10^−4/unit/min"),
]

# per-item lookup of Decomposition rate constant by rabbit liver esterase; items listed below
1. CCCCCCCCCCOC(=O)[C@H](NC(=O)[C@H](CSCc1ccccc1)NC(=O)CC[C@H](N)C(=O)OCC)c1ccccc1.Cl [Comparative Example 4, reference compound]
2. CCCCCCCCCCCCOC(=O)[C@@H](N)CCC(=O)N[C@@H](CSCc1ccccc1)C(=O)N[C@@H](C(=O)OCC)c1ccccc1.Cl [Example 7]
3. CCCCCCCCOC(=O)[C@H](NC(=O)[C@H](CSCc1ccccc1)NC(=O)CC[C@H](N)C(=O)OCC)c1ccccc1.Cl [Comparative Example 2, reference compound]

54.2 10^−4/unit/min
21.1 10^−4/unit/min
267 10^−4/unit/min

====

# Test system: human leukemia cell HL-60
# PROCEDURE_SUMMARY: HL-60 cell differentiation induction, NBT reducing activity (Example 20)
# Format: cell-based
# TEST_CONTEXT: compound 10^−7 M; with 9-cis-RA (5 × 10^−9 M); 4 days
For each record, write down the corresponding Ratio of NBT reduction activity-positive cells.
Give bare numbers, in %.

Some molecules with known Ratio of NBT reduction activity-positive cells results, for comparison:
# MOLECULE, READOUT_UNIT, MEAS_VALUE
records = [
    ("CCCCCCCCCCCCCCCCOC(=O)[C@@H](N)CCC(=O)N[C@@H](CSCc1ccccc1)C(=O)N[C@@H](C(=O)OCC)c1ccccc1.Cl", "%", 6.7),
    ("CCCCCCCCOC(=O)[C@H](NC(=O)[C@H](CSCc1ccccc1)NC(=O)CC[C@H](N)C(=O)OCC)c1ccccc1.Cl [Comparative Example 2, reference compound]", "%", 7.4),
    ("CCOC(=O)[C@@H](N)CCC(=O)N[C@@H](CSCc1ccccc1)C(=O)N[C@@H](C(=O)OCC)c1ccccc1.Cl [Comparative Example 1, reference compound]", "%", 6.3),
]

Now let's try a different one.
Name the recorded Ratio of NBT reduction activity-positive cells for CCCCCCCCCCCCCCCCOC(=O)[C@H](NC(=O)[C@H](CSCc1ccccc1)NC(=O)CC[C@H](N)C(=O)O)c1ccccc1.Cl . 8.8

FYI, the data here is from patent US6627732B1.
